test_target: GST-TMEM106B (truncated, comprising amino acids 122-210 of SEQ ID NO:1) (Homo sapiens, UniProt Q9NUM4)
Sequence (Q9NUM4 122-210): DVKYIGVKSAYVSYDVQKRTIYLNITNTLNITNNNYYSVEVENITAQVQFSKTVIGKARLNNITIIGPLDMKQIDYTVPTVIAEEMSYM
procedure_text: Pre-mix epitope binning of anti-TMEM106B antibodies (Carterra / Lake Pharma)
Assay type: binding
test_conditions: epitope bin number; pre-mix binning on truncated GST-TMEM106B
Reported Binding Community/Bin values follow for various molecules
Returns: the value as a bare number; no unit string appended.

Incoming: Tell me its Binding Community/Bin given TM-7: anti-TMEM106B monoclonal antibody; CDR-H1-3 SEQ ID NO: 8, 41, 84; CDR-L1-3 SEQ ID NO: 126, 166, 190 (antibody, V domains shown) VH: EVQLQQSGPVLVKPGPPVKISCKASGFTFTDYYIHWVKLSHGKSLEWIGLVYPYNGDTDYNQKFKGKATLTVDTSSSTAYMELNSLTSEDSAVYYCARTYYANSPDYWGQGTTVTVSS VL: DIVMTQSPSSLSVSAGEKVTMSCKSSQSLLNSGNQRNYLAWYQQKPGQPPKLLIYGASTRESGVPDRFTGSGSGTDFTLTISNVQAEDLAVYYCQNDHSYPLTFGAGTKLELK as the entry.
Outgoing: 3

Next:
Incoming: Tell me its Binding Community/Bin given TM-54: anti-TMEM106B monoclonal antibody; VH SEQ ID NO: 464, VL SEQ ID NO: 500 (antibody, V domains shown, Variable Heavy Chain -- TM-54; Variable Light Chain -- TM-54) VH: QVQMQQSGPVLVKPGASVTLSCKASGYTFTTYDLNWVKQRPGQGLEWIGWIYPRGGSTEYNEKFKGKATLTVDTSSSTAYMELHSLTSEDSAVYFCAKYSIYAMDYWGQGTSVTVSS VL: DVLMTQTPLSLPVSLGDQASISCRSSQSIVHGNGNTYLEWYLQKPGQSPKLLIYKVSNRFSGVPDRFSGSGSGTDFTLKISRVEAEDLGVYYCFQGSHVPWTFGGGTKLEMK as the entry.
Outgoing: 2
